Just for reference, patent US11505543B2 is where these values come from.

Tested on: recombinant NL4-3 virus (nef section replaced with Renilla luciferase gene) in MT-2 cells
Assay overview: HIV cell culture assay (antiviral activity, luciferase readout)
Type: cell-based
Condition summary: Renilla, NL43, MT-2 cells infected for 4-5 days with recombinant NL4-3 Renilla luciferase virus, serial dilutions of compound
Attribute measured: log10 EC50 (log10 of the value in nM)
Could you please treat all values as log10 of EC50 in nM?

// recorded log10 EC50 for O=C(Cn1ccc(C2CC2)n1)N[C@@H](Cc1cc(F)cc(F)c1)c1nc2cc(-c3ccc(F)cc3F)ccc2c(=O)n1-c1ccc(S(=O)(=O)N2CCOCC2)cc1 [Example 12] : 0.92

Query O=C(Cn1ccc(C2CC2)n1)N[C@@H](Cc1cc(F)cc(F)c1)c1nc2cc(-c3ccccc3F)ccc2c(=O)n1-c1ccc(Cl)c2c(NS(=O)(=O)C3CC3)nn(CC(F)F)c12 (atropisomer, axis not shown) [Example 134] yields log10 EC50 of 1.00

Note to self: log10 EC50 recorded for Cn1nc(NS(C)(=O)=O)c2c(Cl)ccc(-n3c([C@H](Cc4cc(F)cc(F)c4)NC(=O)Cn4nc(C(F)F)c5c4C(F)(F)[C@@H]4C[C@H]54)nc4cc(-c5ccc(C(=O)O)cc5)ccc4c3=O)c21 (atropisomer, axis not shown; (aR)) [Example 100] was 0.81

Looking up Cn1nc(NS(C)(=O)=O)c2c(Cl)ccc(-n3c([C@H](Cc4cc(F)cc(F)c4)NC(=O)Cn4nc(C(F)F)c5c4C(F)(F)[C@@H]4C[C@H]54)nc4cc(-c5cnccc5F)ccc4c3=O)c21 (atropisomer, axis not shown; (aR)) [Example 96] , I see its log10 EC50 listed as -1.12

// log10 EC50 value for Cn1nc(NS(C)(=O)=O)c2c(Cl)ccc(-n3c([C@H](Cc4cc(F)cc(F)c4)NC(=O)Cn4nc(C(F)F)c5c4C(F)(F)[C@@H]4C[C@H]54)nc4cc(-c5ccc(C(=O)O)c(Cl)c5)ccc4c3=O)c21 (atropisomer, axis not shown; (aR)) [Example 75] : 1.46

Per the record, COc1cccc(-c2ccc3c(=O)n(-c4ccc(S(=O)(=O)N5CCOCC5)cc4)c([C@H](Cc4cc(F)cc(F)c4)NC(=O)Cn4ccc(C5CC5)n4)nc3c2)n1 [Example 55] has log10 EC50 of 0.94

CC(C)c1cccc(-c2ccc3c(=O)n(-c4ccc(Cl)c5c(NS(C)(=O)=O)nn(C)c45)c([C@H](Cc4cc(F)cc(F)c4)NC(=O)Cn4nc(C(F)F)c5c4C(F)(F)[C@@H]4C[C@H]54)nc3c2)c1 (atropisomer, axis not shown; (aR)) [Example 41] has a reported log10 EC50 of 0.65

GET /value?item= Cc1n[nH]c(C)c1-c1ccc2c(=O)n(-c3ccc(Cl)c4c(NS(C)(=O)=O)nn(C)c34)c([C@H](Cc3cc(F)cc(F)c3)NC(=O)Cn3nc(C(F)F)c4c3C(F)(F)[C@@H]3C[C@H]43)nc2c1 (atropisomer, axis not shown; (aR)) [Example 89] &field=log10 EC50 returns 0.53

Value of log10 EC50 reported for the molecule CC(C)Oc1ccccc1-c1ccc2c(=O)n(-c3ccc(Cl)c4c(NS(C)(=O)=O)nn(C)c34)c([C@H](Cc3cc(F)cc(F)c3)NC(=O)Cn3nc(C(F)F)c4c3C(F)(F)[C@@H]3C[C@H]43)nc2c1 [Example 181] is -0.15
